# testDetails: Cell viability assay (resazurin), BJhTERT non-transformed control
# Assay type: cell-based
# conditionSummary: human, BJhTERT, Log conc. (M) 1.51356e-8; read-out: cell viability, cytotoxicity curve (Figure3H)
resultType: viability at 72 h, 1.51356e-08 M (%)
Kindly provide the numeric value in % only, without the unit symbol.

Enquiry: Given the compound Nc1nn(-c2ccc(CC(=O)Nc3noc4c3CCCC4)cc2)c2ccccc12 [compound 11] , what is its reported viability at 72 h, 1.51356e-08 M?
Return: 81.4

* * *

# testDetails: Metabolic stability in human liver microsomes
# Format: in vitro ADME
# conditionSummary: pH 7.4, intrinsic clearance
resultType: microsomal CLint at 1 µM (µL/min/mg)
Response body: numeric value in µL/min/mg, unit text excluded.

Solved cases (2 shown):
>>> df
                                   compound  measurementunits  testvalue
0  Cc1nc(-c2cc(F)c(CC(=O)Nc3noc4c3CCCC4)c(F)c2)c(C)[nH]1         µL/min/mg       39.7
1  Cc1nc(-c2ccc(CC(=O)Nc3noc4c3CCCC4)cc2)c(C)[nH]1         µL/min/mg       23.9

Let's switch to this compound now.
Enquiry: Any idea what its microsomal CLint at 1 µM is? The compound is O=C(Nc1ccc(I)cc1)N1CCC(n2c(=O)[nH]c3c(Br)cccc32)CC1 [TH5487, reference compound]
Return: 4.6
